Quick list: shrunken log2 fold change per entry.
# Tested on: Escherichia coli TOP10
# Assay text: shrunken log2 fold change of peptide-encoding DNA abundance (4.5 h post-induction vs induction); higher = less antimicrobial activity (less host growth inhibition)
# Conditions: time post-induction: 4.5 h; library: site-saturation at positions 5, 18, 19, 20
Readout kind: shrunken log2 fold change

>>> print(df.to_string())
            query_sequence               readout_kind  assay_value
0  RRIRLRPPRLPRPRPRPYYWPRP  shrunken log2 fold change       -0.172
1  RRIRNRPPRLPRPRPRPTSMPRP  shrunken log2 fold change       0.0812
2  RRIRIRPPRLPRPRPRPNDRPRP  shrunken log2 fold change      -0.0756
3  RRIRFRPPRLPRPRPRPWCWPRP  shrunken log2 fold change        0.155
4  RRIRWRPPRLPRPRPRPSCAPRP  shrunken log2 fold change        0.145
5  RRIRCRPPRLPRPRPRPHHDPRP  shrunken log2 fold change        -0.58
6  RRIRSRPPRLPRPRPRPIPHPRP  shrunken log2 fold change       -0.184

* * *

# Test system: Escherichia coli TOP10
# Assay text: shrunken log2 fold change of peptide-encoding DNA abundance (4.5 h post-induction vs induction); higher = less antimicrobial activity (less host growth inhibition)
# Conditions: time post-induction: 4.5 h; library: site-saturation at positions 5, 18, 19, 20
Quick list: shrunken log2 fold change per entry.
Readout kind: shrunken log2 fold change

>>> print(df.to_string())
            query_sequence  assay_value
0  RRIRFRPPRLPRPRPRPYRLPRP       0.0227
1  RRIRIRPPRLPRPRPRPKEGPRP      0.00692
2  RRIRPRPPRLPRPRPRPIWDPRP      -0.0628
3  RRIRIRPPRLPRPRPRPTHGPRP       0.0479
4  RRIRQRPPRLPRPRPRPLKAPRP       -0.253
5  RRIRPRPPRLPRPRPRPVWMPRP        0.136
6  RRIRRRPPRLPRPRPRPLCSPRP       -0.255
7  RRIRLRPPRLPRPRPRPAKIPRP       -0.143
8  RRIRQRPPRLPRPRPRPGLCPRP      -0.0449

* * *

# System: Escherichia coli TOP10;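 note: peptides expressed intracellularly from a pBAD plasmid library in pooled LB shake-flask culture, induced with 0.3% L-arabinose, DNA abundance read by NGS, three biological replicates, DESeq2 with apeglm shrinkage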
# Assay text: shrunken log2 fold change of peptide-encoding DNA abundance (4.5 h post-induction vs induction); higher = less antimicrobial activity (less host growth inhibition)
# Conditions: time post-induction: 4.5 h; library: site-saturation at positions 5, 18, 19, 20
Use shrunken log2 fold change to assign classes; range list: bottom range (below -0.2), center range (-0.2 to below 0.08), top range (0.08 or more)

             query_sequence           cat
 0  RRIRHRPPRLPRPRPRPAEAPRP  center range
 1  RRIRTRPPRLPRPRPRPFTEPRP  bottom range
 2  RRIRARPPRLPRPRPRPCQHPRP  bottom range
 3  RRIRIRPPRLPRPRPRPSFAPRP  bottom range
 4  RRIRTRPPRLPRPRPRPWFEPRP     top range
 5  RRIRYRPPRLPRPRPRPYTPPRP  bottom range
 6  RRIRCRPPRLPRPRPRPSTSPRP  bottom range
 7  RRIRIRPPRLPRPRPRPYDYPRP  center range
 8  RRIRFRPPRLPRPRPRPLQFPRP  center range
 9  RRIRCRPPRLPRPRPRPNLVPRP  center range
10  RRIRMRPPRLPRPRPRPGGLPRP     top range
11  RRIRHRPPRLPRPRPRPPYVPRP  center range
12  RRIRFRPPRLPRPRPRPPRDPRP     top range
13  RRIRCRPPRLPRPRPRPMSDPRP     top range
